target: recombinant human mPGES-1 (Homo sapiens); test: Assay A: mPGES-1 enzyme assay (HTRF detection of PGE2); type: biochemical; conditions: biological assay A (compounds 1-41, 54, 55, 62, 73); PGE2 formation from PGH2, HTRF; read-out: mPGES-1 inhibitory effect IC50
pIC50: −log10 of the molar value.
observation type: pIC50

Known pIC50 results, listed for orientation:
[[record]]
compound = "CC(C)(C(=O)NCc1ccc(Cl)c(C(=O)Nc2cnc(OCC(F)F)c(C(=O)Nc3ccc(Br)cc3)c2)c1)C(F)(F)F"
recorded_measurement = 8.15

[[record]]
compound = "CC(C)(C)C(=O)NCc1ccc(Cl)c(C(=O)Nc2ccc(F)c(C(=O)Nc3ccc(Br)cc3)c2)c1"
recorded_measurement = 8.40

[[record]]
compound = "COc1ccc(NC(=O)c2cc(CNC(=O)C3(C(F)(F)F)CC3)ccc2Cl)cc1C(=O)Nc1ccc(Br)cc1"
recorded_measurement = 8.70


1: CC(C)(C)C(=O)NCc1ccc(Cl)c(C(=O)Nc2ccc(OCC(F)F)c(C(=O)Nc3ccc(F)c(Cl)c3)c2)c1
2: CC(C)(C)C(=O)NCc1ccc(Cl)c(C(=O)Nc2cnc(OCC(F)F)c(C(=O)Nc3ccc(Br)cc3)c2)c1
3: COc1ccc(NC(=O)c2cc(CNC(=O)C(C)(C)C)ccc2Cl)cc1C(=O)NCc1ccccc1C(F)(F)F
4: Cc1ccc(NC(=O)c2cc(CNC(=O)C(C)(C)C)ccc2Cl)cc1C(=O)Nc1ccc(Br)cc1
5: COc1ccc(NC(=O)c2cc(CNC(=O)C(C)(C)C)ccc2Cl)cc1C(=O)Nc1cc(C(F)(F)F)ccn1
Prompt: Please put the entries in order of rising pIC50. Field: ranking. Enter the labels in the order requested.
Response: 4, 3, 5, 1, 2

----------
Biological target: recombinant human mPGES-1 (Homo sapiens, UniProt O14684)
Sequence (O14684 1-152): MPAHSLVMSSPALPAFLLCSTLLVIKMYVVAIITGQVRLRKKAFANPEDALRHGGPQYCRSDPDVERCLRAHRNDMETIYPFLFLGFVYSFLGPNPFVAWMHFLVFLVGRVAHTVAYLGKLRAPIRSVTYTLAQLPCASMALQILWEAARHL
Test: Assay B: mPGES-1 enzyme assay (modified)
Type: biochemical
Conditions: biological assay B (all other compounds); PGH2 final conc. 2 μM, HTRF; read-out: mPGES-1 inhibitory effect IC50
pIC50: −log10 of the molar value.
observation type: pIC50

[[record]]
compound = "N#CC1(C(=O)NCc2ccc(Cl)c(C(=O)Nc3ccc(OCC(F)F)c(C(=O)Nc4ccc(Br)cc4)c3)c2)CC1"
observation_type = "pIC50"
recorded_measurement = 7.32

[[record]]
compound = "Cc1ccc(CNC(=O)C(C)(C)C)c(Cl)c1C(=O)Nc1ccc(OCC(F)F)c(C(=O)Nc2ccc(Br)cc2)c1"
observation_type = "pIC50"
recorded_measurement = 8.40

[[record]]
compound = "CC(C)(C#N)C(=O)NCc1ccc(Cl)c(C(=O)Nc2ccc(OCC(F)F)c(C(=O)Nc3ccc(Br)cc3)c2)c1"
observation_type = "pIC50"
recorded_measurement = 8.10


a: CC(C)(C(=O)NCc1ccc(Cl)c(C(=O)Nc2ccc(OCC(F)F)c(C(=O)NC3CCc4ccccc4C3)c2)c1)C(F)(F)F (stereo not shown)
b: CC(C)(C)C(=O)NCc1ccc(F)c(C(=O)Nc2ccc(OCC(F)F)c(C(=O)N[C@H]3CC[C@H](C(F)(F)F)CC3)c2)c1F
c: O=C(Nc1ccc(OCC(F)F)c(C(=O)Nc2ccc(Br)cc2)c1)c1cc(CNC(=O)C2CCCN2c2nccs2)ccc1Cl (stereo not shown)
Prompt: Please put the entries in order of rising pIC50. Field: ranking. Enter the labels in the order requested.
Response: c, b, a
(c: 7.10, b: 7.47, a: 8.22)

----------
target: recombinant human mPGES-1 (Homo sapiens, UniProt O14684); test: Assay B: mPGES-1 enzyme assay (modified); type: biochemical; conditions: biological assay B (all other compounds); PGH2 final conc. 2 μM, HTRF; read-out: mPGES-1 inhibitory effect IC50
observation type: IC50 (nM)

[[record]]
compound = "CC(C)(C(=O)NCc1ccc(Cl)c(C(=O)Nc2ccc(OCC(F)F)c(C(=O)Nc3c(F)ccc(F)c3F)c2)c1F)C(F)(F)F [Example 79]"
recorded_measurement = 5


A: CC(C)(C(=O)NCc1ccc(Cl)c(C(=O)Nc2ccc(OCC(F)F)c(C(=O)Nc3ccc(Cl)cc3Cl)c2)c1)C(F)(F)F [Example 94]
B: COCCOc1ccc(NC(=O)c2cc(CNC(=O)C(C)(C)C)ccc2Cl)cc1C(=O)N[C@H]1CC[C@H](C(F)(F)F)CC1 [Example 71]
Prompt: Param pair: A , B . Output: the one whose IC50 is numerically greater. // respond with label for picked entry
Response: B

P: CC(C)(C(=O)NCc1ccc(Cl)c(C(=O)Nc2ccc(OCC(F)F)c(C(=O)Nc3ccccc3Cl)c2)c1)C(F)(F)F [Example 139]
Q: CC(C)(C(=O)NCc1ccc(Cl)c(C(=O)Nc2ccc(OCC(F)F)c(C(=O)NCCC(F)(F)F)c2)c1)C(F)(F)F [Example 115]
R: CC(C)(C(=O)NCc1ccc(Cl)c(C(=O)Nc2ccc(OCC(F)F)c(C(=O)NCC3CCCOC3)c2)c1)C(F)(F)F (stereo not shown) [Example 98]
Prompt: Order the records so the highest IC50 appears first and the lowest last. Field: ranking. Enter the labels in the order requested.
Response: R, Q, P
(R: 43 nM, Q: 15 nM, P: 6 nM)

----------
molecular target: recombinant human mPGES-1 (Homo sapiens); test: Assay B: mPGES-1 enzyme assay (modified); assay type: biochemical; settings: biological assay B (all other compounds); PGH2 final conc. 2 μM, HTRF; read-out: mPGES-1 inhibitory effect IC50
pIC50: −log10 of the molar value.
observation type: pIC50

[[record]]
compound_smiles = "Cc1c(CNC(=O)C(C)(C)C)ccc(Cl)c1C(=O)Nc1ccc(OCC(F)F)c(C(=O)Nc2ccc(Br)cc2)c1"
tested_on = "recombinant human mPGES-1 (Homo sapiens)"
recorded_measurement = 8.30

[[record]]
compound_smiles = "CC(C)(C(=O)NCc1ccc(Cl)c(C(=O)Nc2ccc(OCC(F)F)c(C(=O)Nc3ccc(Br)c(Cl)c3)c2)c1)C(F)(F)F"
tested_on = "recombinant human mPGES-1 (Homo sapiens)"
recorded_measurement = 8.30

[[record]]
compound_smiles = "CC(C)(C(=O)NCc1ccc(Cl)c(C(=O)Nc2ccc(OCC(F)F)c(C(=O)Nc3ncc(Cl)s3)c2)c1)C(F)(F)F"
tested_on = "recombinant human mPGES-1 (Homo sapiens)"
recorded_measurement = 8.15

[[record]]
compound_smiles = "CC(C)(C(=O)NCc1ccc(Cl)c(C(=O)Nc2ccc(OCC(F)F)c(C(=O)N[C@H]3CC[C@H](C(F)(F)F)CC3)c2)c1)C(F)(F)F"
tested_on = "recombinant human mPGES-1 (Homo sapiens)"
recorded_measurement = 8.10


I: CC(C)(C(=O)NCc1ccc(Cl)c(C(=O)Nc2ccc(OCC(F)F)c(C(=O)Nc3ccncn3)c2)c1)C(F)(F)F
II: COC(C)(C)C(=O)NCc1ccc(Cl)c(C(=O)Nc2ccc(OCC(F)F)c(C(=O)Nc3ccc(Br)cc3)c2)c1
Prompt: Param pair: I , II . Output: the one whose pIC50 is numerically greater. // respond with label for picked entry
Response: II
(II: 8.15, I: 7.01)

I: CC(C)(C(=O)NCc1ccc(Cl)c(C(=O)Nc2ccc(OCC(F)F)c(C(=O)Nc3cccc(F)c3)c2)c1)C(F)(F)F
II: Cc1nc(C(=O)NCc2ccc(Cl)c(C(=O)Nc3ccc(OCC(F)F)c(C(=O)Nc4ccc(Br)cc4)c3)c2)c(C)s1
Prompt: Param pair: I , II . Output: the one whose pIC50 is numerically greater. // respond with label for picked entry
Response: I
(I: 8.30, II: 6.98)

----------
target: recombinant human mPGES-1 (Homo sapiens, UniProt O14684); assay: Assay B: mPGES-1 enzyme assay (modified); format: biochemical; conditions: biological assay B (all other compounds); PGH2 final conc. 2 μM, HTRF; read-out: mPGES-1 inhibitory effect IC50
pIC50: −log10 of the molar value.
observation type: pIC50

[[record]]
molecule = "CC(NC(=O)c1cc(NC(=O)c2c(Cl)ccc(CNC(=O)C(C)(C)C(F)(F)F)c2Cl)ccc1OCC(F)F)C(F)(F)F (stereo not shown) [Example 159]"
tested_on = "recombinant human mPGES-1 (Homo sapiens, UniProt O14684)"
recorded_measurement = 8.15

[[record]]
molecule = "CC(C)(C)C(=O)NCc1ccc(Cl)c(C(=O)Nc2ccc(N3CCCC(C(F)(F)F)C3)c(C(=O)Nc3ccc(Br)cc3)c2)c1Cl (stereo not shown) [Example 180]"
tested_on = "recombinant human mPGES-1 (Homo sapiens, UniProt O14684)"
recorded_measurement = 8.70


A: O=C(Nc1ccc(Br)cc1)c1cc(NC(=O)c2c(F)ccc(CNC(=O)C(F)(F)F)c2Cl)ccc1OCC(F)F [Example 43]
B: CC(C)(C(=O)NCc1ccc(Cl)c(C(=O)Nc2ccc(OCC(F)F)c(C(=O)Nc3ccc(F)c(Cl)c3)c2)c1F)C(F)(F)F [Example 77]
C: CC(C)NC(=O)c1cc(NC(=O)c2cc(CNC(=O)C(C)(C)C(F)(F)F)ccc2Cl)ccc1OCC(F)F [Example 110]
D: CC(C)(C(=O)NCc1ccc(Cl)c(C(=O)Nc2ccc(OCC(F)F)c(C(=O)NCC3CCCCC3)c2)c1)C(F)(F)F [Example 129]
E: CC(C)(C(=O)NCc1ccc(Cl)c(C(=O)Nc2ccc(OCC(F)F)c(C(=O)NCc3ccc(C(F)(F)F)cc3)c2)c1)C(F)(F)F [Example 104]
Prompt: Order the records so the highest pIC50 appears first and the lowest last. Field: ranking. Enter the labels in the order requested.
Response: B, D, E, C, A
(B: 8.70, D: 8.30, E: 8.00, C: 7.77, A: 6.92)

The measurements presented in this section are drawn from patent US8951999B2.
